- System: Mus musculus
- assay.comment: Number of animal protected out of 1 was evaluated by metrazole-induced convulsion test at 30 min after subcutaneous administration of >300 mg/kg
- Format: functional
Listed below: No. of animals protected values for each entry.
observed.property: No. of animals protected

1. CCC(OCc1ccccc1)(C(=O)NC)c1ccccc1 (stereo not drawn): 0
2. CCOC(=O)N1CCCC(OC)(c2ccccc2)C1=O (stereo not drawn): 1
3. CCOC(=O)N1CCCC(OCC2CCCCC2)(c2ccccc2)C1=O (stereo not drawn): 0
